This section presents compounds with their documented Catalepsy values.
Tested on: rat
assay_method_text: Cataleptic effect, homolateral crossed paws method
Type: in vivo
Design: unit not given here
condition: I.P.
metric: Catalepsy

>>> measured_result("C#CC1(OCC(O)CN2CCN(c3ccc(F)cc3)CC2)CCCCC1 (centres unmarked)")
20
>>> measured_result("C#CC1(OCC(O)CN2CCN(c3ccccc3)CC2)CCCCC1 (centres unmarked)")
50
>>> measured_result("C#CC1(OCC(O)CN2CCN(c3ccc(Cl)cc3)CC2)CCCCC1 (centres unmarked)")
30
>>> measured_result("C#CC(C)(CC)OCC(O)CN1CCN(c2ccc(F)cc2)CC1 (centres unmarked)")
60
>>> measured_result("O=C(CCCN1CCC(O)(c2ccc(Cl)cc2)CC1)c1ccc(F)cc1 [Haloperidol, haloperidol, reference compound]")
1

* * *

assay_method_text: Acute toxicity, LD50, oral administration
condition: in vivo, mouse
This section presents compounds with their documented LD50 values.
metric: LD50 (mg/kg)

>>> measured_result("O=C(CCCN1CCC(O)(c2ccc(Cl)cc2)CC1)c1ccc(F)cc1 [Haloperidol, haloperidol, reference compound]")
125
>>> measured_result("C#CC1(OCC(O)CN2CCN(c3ccc(F)cc3)CC2)CCCCC1 (stereo not shown)")
800
>>> measured_result("C#CC1(OCC(O)CN2CCN(c3ccccc3OC)CC2)CCCCC1 (stereo not shown)")
60
